src = PubChem BioAssay

Tested on: Plasmodium falciparum Sir2 (PF13_0152, Sir2A)
Assay: pfSir2 binders on small-molecule microarrays, primary screen, biochemical, small-molecule microarray, 635 nm fluorescence (AID 1098);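 further: score merges spot fluorescence intensity with its signal-to-noise ratio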
Details: small-molecule microarray binding, fluorescence 635 nm; higher = more signal
Classification field: Yes = composite z-score at or over 1; No = composite z-score under 1.

Compound: CCN1C(=O)[C@H]2[C@H]3[C@H](O)[C@H](O)CC(=NOC[C@@H](C)[C@H](OCc4ccccc4)C(C)C)[C@@H]3CC[C@H]2C1=O
Class Assignment: Yes
--
Compound: CC(C)[C@@H](OCc1ccccc1)[C@H](C)C=NOC[C@@H](C)[C@H](OCc1ccccc1)C(C)C
Class Assignment: No
--
Compound: CCOC(=O)CCN1C(=O)[C@H]2[C@H]3[C@H](O)[C@H](O)CC(=NOCc4ccccc4)[C@@H]3CC[C@H]2C1=O
Class Assignment: No
--
Compound: C=CC[C@@H]1C=C[C@H](ON=C(C)CCN2CCc3nc(CC)c(CC)cc3C2)[C@@H](CO)O1
Class Assignment: Yes
--
Compound: [N-]=[N+]=NCc1ccccc1[C@@H]1OC(c2ccc(OCCCO)cc2)=N[C@]1(Cc1ccccc1)C(=O)N1CCOCC1
Class Assignment: Yes
--
Compound: CC(CCN1CCCCc2nc(C)c(C)cc21)=NOC(C)CN1CCCc2nc(C)c(C)cc21 (stereo not given)
Class Assignment: Yes
--
Compound: O=C(NN=C1C[C@@H](O)[C@@H](O)[C@@H]2[C@@H]3C(=O)N(c4cccc(Oc5ccccc5)c4)C(=O)[C@@H]3CC[C@H]12)OCc1ccccc1
Class Assignment: No
--
Compound: COCCCNC(=O)[C@@]1(C)c2ccccc2C(=O)N(Cc2ccc(OC(F)(F)F)cc2)[C@H]1c1ccc(CO)cc1
Class Assignment: No
--
Compound: C#CCCCON=C1C[C@@H](O)[C@@H](O)[C@@H]2[C@@H]3C(=O)N(CCC(=O)OCC)C(=O)[C@@H]3CC[C@@H]12
Class Assignment: No
--
Compound: CCN1C(=O)[C@H]2[C@H]3[C@H](O)[C@H](O)CC(=NOCC=C(C)CCC=C(C)C)[C@H]3CC[C@H]2C1=O
Class Assignment: No
